All values here come from patent US20170298096A1.

- TARGET_OR_SYSTEM: T1, His-tagged P3028 (human, also: His-tag, terminus and sequence not given here)
- T1 construct: in solution at 0.5 ug/mL over the peptide cards; found with anti-His-tag antibody and rabbit anti-mouse peroxidase (rampo); also called PGE73; not shown: His-tag
- T1 peptide: VFDEFKPLVEEPQNLIK
- EXPERIMENT_SUMMARY: PEPSCAN chip ELISA, His-P3028 in solution;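 further: score is the raw OD at 405 nm from peroxidase colour with ABTS, imaged by CCD camera before and after staining, with wells showing air bubbles set to zero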
No end group written: not given here.

BINDER: KKLITFFVKLSLFTER [SEQ ID NO 300]
RAMPO Score, rampo score: 430

BINDER: KKLDTFFVKLSFFTER [SEQ ID NO 422]
RAMPO Score, rampo score: 389

BINDER: KKLDTFFVWLSLFTER [SEQ ID NO 526]
RAMPO Score, rampo score: 245

BINDER: KKLDTFFVTLSLFTER [SEQ ID NO 445]
RAMPO Score, rampo score: 347

BINDER: KKLNTFFVKLSLFTER [SEQ ID NO 498]
RAMPO Score, rampo score: 296

BINDER: KKLDTFFVKLVLFTER [SEQ ID NO 419]
RAMPO Score, rampo score: 392

BINDER: KKADTFFVKLSLFTER [SEQ ID NO 282]
RAMPO Score, rampo score: 427
